System Name: SNAP-mGluR3 (Rattus norvegicus, UniProt P31422)
Sequence (P31422 23-879): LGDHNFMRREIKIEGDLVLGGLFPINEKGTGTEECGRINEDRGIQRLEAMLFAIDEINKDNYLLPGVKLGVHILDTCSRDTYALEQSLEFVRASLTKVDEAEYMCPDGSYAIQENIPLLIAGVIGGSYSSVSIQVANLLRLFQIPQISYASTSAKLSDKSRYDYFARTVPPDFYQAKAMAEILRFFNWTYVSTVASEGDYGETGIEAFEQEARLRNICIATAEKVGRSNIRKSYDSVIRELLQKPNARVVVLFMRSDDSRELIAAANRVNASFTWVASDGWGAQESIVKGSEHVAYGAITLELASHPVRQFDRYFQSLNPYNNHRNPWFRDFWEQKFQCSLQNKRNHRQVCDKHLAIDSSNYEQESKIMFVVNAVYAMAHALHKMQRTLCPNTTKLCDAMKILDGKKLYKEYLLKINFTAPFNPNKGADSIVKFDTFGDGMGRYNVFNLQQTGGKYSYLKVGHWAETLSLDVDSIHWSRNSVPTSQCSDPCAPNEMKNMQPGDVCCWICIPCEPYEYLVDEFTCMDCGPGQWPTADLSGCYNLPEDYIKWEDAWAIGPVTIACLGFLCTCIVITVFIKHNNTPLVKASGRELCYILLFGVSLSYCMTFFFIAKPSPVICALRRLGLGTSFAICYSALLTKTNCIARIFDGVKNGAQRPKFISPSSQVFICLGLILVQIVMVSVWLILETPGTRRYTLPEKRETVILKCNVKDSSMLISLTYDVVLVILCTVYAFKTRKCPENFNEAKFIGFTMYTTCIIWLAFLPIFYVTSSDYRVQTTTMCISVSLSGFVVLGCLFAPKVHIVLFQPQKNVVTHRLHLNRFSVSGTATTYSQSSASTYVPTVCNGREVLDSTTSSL
Assay Remarks: GIRK current, whole-cell patch clamp
Type: cell-based
pEC50: −log10 of the molar value.

[
  {
    "Molecule": "COc1ccc(C(=O)O)cc1OC[C@H](C)COc1ccc(C(=O)CC(C)(C)C)c(O)c1C [VU6023326]",
    "pEC50": 8.10
  }
]
